The reader will find reported Stability (Arbitrary units) Rat 6 h values listed item by item below.
- assay name: Stability of compounds in rat blood plasma
- Format: in vitro ADME
Numbered stars: 1 amine (or outer) side, 2 acyl side, 3 side chain; on linkers, the order of the positions; unused ones are H or OH. Square brackets hold non-standard residues; d marks the D form. Peptide text beside a SMILES is read from it. * marks the point of attachment. ξ: configuration not given here. Gly(1-amidinopiperidin-4-yl) = N=C(N)N1CCC([C@H](N)C(=O)O)CC1; Tetrahydroisoquinolin(2-yl) = c1ccc2c(c1)CCN(*)C2; X1 = CC(C)c1oc([C@H](CO)N[*:1])nc1C(=O)[*:2]; Pro(3R-Ph) = O=C(O)[C@H]1NCC[C@@H]1c1ccccc1; Met(O) = CS(=O)CC[C@H](N)C(=O)O; Tic = O=C(O)[C@@H]1Cc2ccccc2CN1; Cha = N[C@@H](CC1CCCCC1)C(=O)O; NHPhenethyl = c1ccc(CCN*)cc1; ξDisc = O=C(O)C1NCc2ccccc21; X4 = OCCOCCN(CCc1ccccc1)*; Nle = CCCC[C@H](N)C(=O)O; X6 = OCCN(CCc1ccccc1)*; X5 = OCCN(Cc1ccccc1)*; X3 = OCCOCCN*

compound: CCCC[C@H](NC(=O)[C@@H]1Cc2ccccc2CN1C(=O)[C@@H](NC(=O)[C@H](CC1CCCCC1)NC(C)=O)C1CCN(C(=N)N)CC1)C(=O)NCCc1ccccc1 [Compound P69, Ac-Cha-Gpg-Tic-Nle-N(H)CH2CH2Ph] (Ac-[Cha][Gly(1-amidinopiperidin-4-yl)][Tic][Nle]-NHPhenethyl)
readout units: Arbitrary units
Stability (Arbitrary units) Rat 6 h: 41
--
compound: CSCC[C@H](NC(=O)[C@@H]1Cc2ccccc2CN1C(=O)[C@H](CCCNC(=N)N)NC(=O)[C@H](CC1CCCCC1)NC(C)=O)C(=O)N(CCO)CCc1ccccc1 [Compound P85, Ac-Cha-Arg-Tic-Met-N(CH2CH2OH)CH2CH2Ph] (Ac-[Cha]R[Tic]M-X6)
readout units: Arbitrary units
Stability (Arbitrary units) Rat 6 h: 111
--
compound: CSCC[C@H](NC(=O)[C@@H]1Cc2ccccc2CN1C(=O)[C@H](CCCNC(=N)N)NC(=O)[C@H](CC1CCCCC1)NC(C)=O)C(N)=O [Compound P1, Ac-Cha-Arg-Tic-Met-NH2] (Ac-[Cha]R[Tic]M-NH2)
readout units: Arbitrary units
Stability (Arbitrary units) Rat 6 h: 11
--
compound: CCCC[C@H](NC(=O)[C@@H]1Cc2ccccc2CN1C(=O)[C@@H](NC(=O)[C@H](CC1CCCCC1)NC(C)=O)C1CCN(C(=N)N)CC1)C(=O)NCCOCCO [Compound P70, Ac-Cha-Gpg-Tic-Nle-N(H)CH2CH2OCH2CH2OH] (Ac-[Cha][Gly(1-amidinopiperidin-4-yl)][Tic][Nle]-X3)
readout units: Arbitrary units
Stability (Arbitrary units) Rat 6 h: 83
--
compound: CCCC[C@H](NC(=O)[C@@H]1Cc2ccccc2CN1C(=O)[C@H](CCCNC(=N)N)NC(=O)[C@H](CC1CCCCC1)NC(C)=O)C(=O)N(CCOCCO)CCc1ccccc1 [Compound P88] (Ac-[Cha]R[Tic][Nle]-X4)
readout units: Arbitrary units
Stability (Arbitrary units) Rat 6 h: 77
--
compound: CCCC[C@H](NC(=O)[C@@H]1Cc2ccccc2CN1C(=O)[C@@H](NC(=O)[C@H](CC1CCCCC1)NC(C)=O)C1CCN(C(=N)N)CC1)C(=O)N(CCO)Cc1ccccc1 [Compound P78, Ac-Cha-Gpg-Tic-Nle-N(Bn)CH2CH2OH] (Ac-[Cha][Gly(1-amidinopiperidin-4-yl)][Tic][Nle]-X5)
readout units: Arbitrary units
Stability (Arbitrary units) Rat 6 h: 184
--
compound: CCCC[C@H](NC(=O)[C@@H]1Cc2ccccc2CN1C(=O)[C@@H](NC(=O)[C@H](CC1CCCCC1)NC(C)=O)C1CCN(C(=N)N)CC1)C(=O)N1CCc2ccccc2C1 [Compound P77] (Ac-[Cha][Gly(1-amidinopiperidin-4-yl)][Tic][Nle]-{Tetrahydroisoquinolin(2-yl)})
readout units: Arbitrary units
Stability (Arbitrary units) Rat 6 h: 129
--
compound: CCCC[C@H](NC(=O)C1c2ccccc2CN1C(=O)[C@@H](NC(=O)[C@H](CC1CCCCC1)NC(C)=O)C1CCN(C(=N)N)CC1)C(=O)N(C)Cc1ccccc1 (single isomer, unassigned) [Compound P78-1]
readout units: Arbitrary units
Stability (Arbitrary units) Rat 6 h: 80
--
compound: CCCC[C@H](NC(=O)C1c2ccccc2CN1C(=O)[C@@H](NC(=O)[C@H](CC1CCCCC1)NC(C)=O)C1CCN(C(=N)N)CC1)C(=O)N1CC[C@H](c2ccccc2)[C@H]1C(=O)N[C@@H](CO)c1nc(C(=O)N(C)C)c(C(C)C)o1 (stereo partly drawn) [Compound P81-1] (Ac-[Cha][Gly(1-amidinopiperidin-4-yl)][ξDisc][Nle][Pro(3R-Ph)][X1]-NMe2)
readout units: Arbitrary units
Stability (Arbitrary units) Rat 6 h: 151
--
compound: CCCC[C@H](NC(=O)[C@@H]1Cc2ccccc2CN1C(=O)[C@H](CCCNC(=N)N)NC(=O)[C@H](CC1CCCCC1)NC(C)=O)C(=O)N1CC[C@H](c2ccccc2)[C@H]1C(=O)N[C@@H](CO)c1nc(C(=O)N(C)C)c(C(C)C)o1 [Compound P51] (Ac-[Cha]R[Tic][Nle][Pro(3R-Ph)][X1]-NMe2)
readout units: Arbitrary units
Stability (Arbitrary units) Rat 6 h: 81
--
compound: CC(=O)N[C@@H](CC1CCCCC1)C(=O)N[C@@H](CCCNC(=N)N)C(=O)N1Cc2ccccc2C[C@H]1C(=O)N[C@@H](CC[S+](C)[O-])C(=O)N1CC[C@H](c2ccccc2)[C@H]1C(=O)N[C@@H](CO)c1nc(C(=O)N(C)C)c(C(C)C)o1 (stereo partly drawn) [Compound P43] (Ac-[Cha]R[Tic][Met(O)][Pro(3R-Ph)][X1]-NMe2)
readout units: Arbitrary units
Stability (Arbitrary units) Rat 6 h: 96
--
compound: CCCC[C@H](NC(=O)[C@@H]1Cc2ccccc2CN1C(=O)[C@H](CCCNC(=N)N)NC(=O)[C@H](CC1CCCCC1)NC(C)=O)C(=O)N(CCO)CCc1ccccc1 [Compound P81, Ac-Cha-Arg-Tic-Nle-N(CH2CH2OH)CH2CH2Ph] (Ac-[Cha]R[Tic][Nle]-X6)
readout units: Arbitrary units
Stability (Arbitrary units) Rat 6 h: 88

* * *

- System: T-cell proliferation, lymph node cells of chimeric 0401-IE transgenic mice
- settings: read-out: Immunsupressive assays DR4-LN (IC50); DR4-LN
Numbered stars: 1 amine (or outer) side, 2 acyl side, 3 side chain; on linkers, the order of the positions; unused ones are H or OH. Square brackets hold non-standard residues; d marks the D form. Peptide text beside a SMILES is read from it. * marks the point of attachment. ξ: configuration not given here. Gly(1-amidinopiperidin-4-yl) = N=C(N)N1CCC([C@H](N)C(=O)O)CC1; X1 = CC(C)c1oc([C@H](CO)N[*:1])nc1C(=O)[*:2]; Pro(3R-Ph) = O=C(O)[C@H]1NCC[C@@H]1c1ccccc1; Tic = O=C(O)[C@@H]1Cc2ccccc2CN1; Cha = N[C@@H](CC1CCCCC1)C(=O)O; NHPhenethyl = c1ccc(CCN*)cc1; NMe(benzyl) = CN(Cc1ccccc1)*; ξDisc = O=C(O)C1NCc2ccccc21; Nle = CCCC[C@H](N)C(=O)O; X2 = OCCOCCN(Cc1ccccc1)*; X5 = OCCN(Cc1ccccc1)*; X3 = OCCOCCN*
Listed next: entries and their corresponding IC50.
endpoint label: IC50 (µM)

compound: CCCC[C@H](NC(=O)C1c2ccccc2CN1C(=O)[C@@H](NC(=O)[C@H](CC1CCCCC1)NC(C)=O)C1CCN(C(=N)N)CC1)C(=O)N1CC[C@H](c2ccccc2)[C@H]1C(=O)N[C@@H](CO)c1nc(C(=O)N(C)C)c(C(C)C)o1 (stereo partly drawn) [Compound P81-1] (Ac-[Cha][Gly(1-amidinopiperidin-4-yl)][ξDisc][Nle][Pro(3R-Ph)][X1]-NMe2)
readout units: µM
value measured: 63
--
compound: CSCC[C@H](NC(=O)[C@@H]1Cc2ccccc2CN1C(=O)[C@H](CCCNC(=N)N)NC(=O)[C@H](CC1CCCCC1)NC(C)=O)C(=O)N1CC[C@H](c2ccccc2)[C@H]1C(=O)N[C@@H](CO)c1nc(C(=O)N(C)C)c(C(C)C)o1 [Compound P33] (Ac-[Cha]R[Tic]M[Pro(3R-Ph)][X1]-NMe2)
readout units: µM
value measured: 40
--
compound: CCCC[C@H](NC(=O)[C@@H]1Cc2ccccc2CN1C(=O)[C@H](CCCNC(=N)N)NC(=O)[C@H](CC1CCCCC1)NC(C)=O)C(=O)NCCc1ccccc1 [Compound P82, Ac-Cha-Arg-Tic-Nle-N(H)CH2CH2Ph] (Ac-[Cha]R[Tic][Nle]-NHPhenethyl)
readout units: µM
value measured: 27
--
compound: CCCC[C@H](NC(=O)[C@@H]1Cc2ccccc2CN1C(=O)[C@@H](NC(=O)[C@H](CC1CCCCC1)NC(C)=O)C1CCN(C(=N)N)CC1)C(=O)NCCOCCO [Compound P70, Ac-Cha-Gpg-Tic-Nle-N(H)CH2CH2OCH2CH2OH] (Ac-[Cha][Gly(1-amidinopiperidin-4-yl)][Tic][Nle]-X3)
readout units: µM
value measured: 42
--
compound: CCCC[C@H](NC(=O)[C@@H]1Cc2ccccc2CN1C(=O)[C@@H](NC(=O)[C@H](CC1CCCCC1)NC(C)=O)C1CCN(C(=N)N)CC1)C(=O)N(CCO)Cc1ccccc1 [Compound P78, Ac-Cha-Gpg-Tic-Nle-N(Bn)CH2CH2OH] (Ac-[Cha][Gly(1-amidinopiperidin-4-yl)][Tic][Nle]-X5)
readout units: µM
value measured: 36
--
compound: CCCC[C@H](NC(=O)[C@@H]1Cc2ccccc2CN1C(=O)[C@H](CCCNC(=N)N)NC(=O)[C@H](CC1CCCCC1)NC(C)=O)C(=O)N(CCOCCO)Cc1ccccc1 [Compound P98, Ac-Cha-Arg-Tic-Nle-N(Bn)CH2CH2OCH2CH2OH] (Ac-[Cha]R[Tic][Nle]-X2)
readout units: µM
value measured: 69
--
compound: CCCC[C@H](NC(=O)C1c2ccccc2CN1C(=O)[C@H](CCCNC(=N)N)NC(=O)[C@H](CC1CCCCC1)NC(C)=O)C(=O)N(C)Cc1ccccc1 (stereo partly drawn) [Compound P72-1, Ac-Cha-Arg-Disc-Nle-N(Me)Bn] (Ac-[Cha]R[ξDisc][Nle]-{NMe(benzyl)})
readout units: µM
value measured: 31
